Just for reference, the supplement of paper PMC9694430 is where these values come from.

Entries and their thermal shift delta Tm values follow.
System: LOC_OS02G17970-cb001;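 further: purified Escherichia coli-expressed rice kinase domain construct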
Experiment: thermal shift delta Tm vs DMSO control; higher = stronger stabilization (binding)
Conditions: 12.5 µM; protein concentration 2 µM
Please format your answer as a value with the unit trailing.

INSERT INTO results (compound, reading) VALUES
  ('CC(C)CCN1c2nc(Nc3cc(F)c(O)c(F)c3)ncc2N(C)C(=O)C1C (stereo unspecified)', '1.38 °C'),
  ('CCn1cc(-c2ccnc3[nH]c(-c4cccc(CN(C)C)c4)cc23)c(-c2ccc(NC(=O)N(C)C)cc2)n1', '1.01 °C'),
  ('CN1CCN(c2ccc(Nc3cc(-c4cccc(-n5ccc6cc(C7CC7)cc(F)c6c5=O)c4CO)cn(C)c3=O)nc2)CC1', '0.75 °C'),
  ('O=C(Nc1ccc(-c2ccnc(Nc3ccc(N4CCOCC4)cc3)n2)cc1)C1CCCN1 (stereo unspecified)', '0.54 °C'),
  ('CS(=O)(=O)c1cccc(CNc2nc(Nc3ccc4c(c3)CCC(=O)N4)ncc2C(F)(F)F)c1', '0.72 °C'),
  ('Cc1nc(N)sc1-c1ccnc(Nc2ccc(N3CCOCC3)cc2)n1', '-0.16 °C'),
  ('CCn1c(C(=O)N(C2CC2)C2CC2)cc2c3c(ncn3C)c(Nc3cc(C)n(C)n3)nc21', '1.3 °C'),
  ('CO[C@H]1C[C@@H]2CC[C@@H](C)[C@@](O)(O2)C(=O)C(=O)N2CCCC[C@H]2C(=O)O[C@H]([C@H](C)C[C@@H]2CC[C@@H](OC(=O)C(C)(CO)CO)[C@H](OC)C2)CC(=O)[C@H](C)/C=C(\C)[C@@H](O)[C@@H](OC)C(=O)[C@H](C)C[C@H](C)/C=C/C=C/C=C/1C', '0.36 °C'),
  ('CNC(=O)c1ccccc1Sc1ccc2c(/C=C/c3ccccn3)n[nH]c2c1', '-0.24 °C'),
  ('Cc1c(Cn2c(C)nc3c(C(=O)O)cc(N4CCOCC4)cc32)cccc1C(F)(F)F', '0.26 °C');

Prompt line: Please report the recorded thermal shift delta Tm for O=C(NOCC(O)CO)c1cc(Br)c(F)c(F)c1Nc1ccc(I)cc1F (stereo unspecified) .
Response line: 2.02 °C

Prompt line: Please report the recorded thermal shift delta Tm for OCCn1cc(-c2ccc3c(c2)CC/C3=N\O)c(-c2ccncc2)n1 .
Response line: 0.48 °C

Prompt line: Please report the recorded thermal shift delta Tm for Nc1nc(N)c2nc(-c3cccc(O)c3)c(-c3cccc(O)c3)nc2n1 .
Response line: 1.03 °C
